- experimental_system: Trp operon repressor (Escherichia coli (strain K12), UniProt P0A881)
- test_description: Binding Assay
pKd: −log10 of the molar value.
Label F if pKd falls below 4; label T in every other case.

INSERT INTO measurements (compound, label_class) VALUES
  ('O=C(O)CCc1c[nH]c2ccccc12 [Indole-3-propionic acid, 4]', 'T'),
  ('Cn1cc(CC(N)C(=O)O)c2ccccc21 [1-Methyl-L-tryptophan, 8]', 'T'),
  ('O=C(O)/C=C/c1c[nH]c2ccccc12 [3-Beta-Indole-acrylic acid (Tran), 1]', 'T'),
  ('NC(Cc1c[nH]c2ncccc12)C(=O)O [7-Aza-L-tryptophan, 21]', 'F'),
  ('OCCc1c[nH]c2ccccc12 [Tryptaphol, 6]', 'T'),
  ('c1ccc2[nH]ccc2c1', 'T'),
  ('O=C(O)C(O)Cc1c[nH]c2ccccc12 [L-Indole-3-lactic acid, 13]', 'T'),
  ('COc1ccc2[nH]cc(CC(N)C(=O)O)c2c1 [5-Methoxyu-L-tryptophan, 11]', 'T'),
  ('NC(=O)C(N)Cc1c[nH]c2ccccc12 [L-Tryptophanamide, 9]', 'T'),
  ('O=C(O)Cc1c[nH]c2ccccc12 [Indole-3-acetic acid, 16]', 'T'),
  ('c1ccc2c(c1)CCN2 [Indoline, 19]', 'F'),
  ('Cc1ccc2[nH]cc(CCN)c2c1 [5-Methyl-tryptamine, 10]', 'T'),
  ('NC(Cc1c[nH]c2cc([N+](=O)[O-])ccc12)C(=O)O [6-Nitro-L-tryptophan, 17]', 'T'),
  ('NC(Cc1c[nH]c2ccc(O)cc12)C(=O)O [5-Hydroxy-L-tryptophan, 22]', 'F'),
  ('NC(Cc1ccccc1)C(=O)O [L-Phenylalanine, 23]', 'F'),
  ('O=C(O)CCCc1c[nH]c2ccccc12 [Indole-3-butyric acid, 3]', 'T'),
  ('Cc1ccc2[nH]cc(CC(N)C(=O)O)c2c1 [5-Methyl-L-tryptophan, 2]', 'T'),
  ('COC(=O)C(N)Cc1c[nH]c2ccccc12 [L-Tryptophan methyl ester, 14]', 'T'),
  ('NCCc1c[nH]c2ccccc12 [Tryptamine, 15]', 'T');

All values here come from BindingDB's records for PubMed 3549712.
